Collected pIC50 values appear next to each entry.
# measurement-description: Inhibition of classical pathway of the complement system
# Type: functional, Homo sapiens
# pIC50 = -log10(concentration in molar units)

Sample records with pIC50:
O=C(/C=C/c1ccc(O)c(O)c1)O[C@H](Cc1ccc(O)c(O)c1)C(=O)O [ROSMARINIC ACID] ... 3.74
CO[C@H]1O[C@H](C(O)CO)/C(=C/c2ccc(CO)o2)C1=O (stereo partly drawn) [PHELLINUSFURAN B] ... 4.47

Let's switch to this molecule now.
Exercise: Please look up its pIC50: CO[C@H]1O[C@@H](C(O)CO)/C(=C/c2ccc(CO)o2)C1=O (stereo partly drawn) [PHELLINUSFURAN A]
Solution: 4.47
